# assay remarks: Plasma pharmacokinetics and tissue distribution 2 h after oral cabazitaxel 10 mg/kg with vehicle or 25 mg/kg ritonavir in wild-type, Oatp1a/1b−/−, Oatp1a/1b/2b1−/−, OATP1B1- and OATP1B3-transgenic mice
# Format: in vivo
# conditions used: male, FVB, mouse, plasma, po, 10 mg/kg, wild-type mice; ritonavir 25 mg/kg oral; cabazitaxel 10 mg/kg oral
metric name: Cmax (µM)
Field: numeric (µM). Do not append units.

Exercise: Look up Cmax for this compound: CO[C@H]1C(=O)[C@]2(C)[C@@H](OC)C[C@H]3OC[C@@]3(OC(C)=O)[C@H]2[C@H](OC(=O)c2ccccc2)[C@]2(O)C[C@H](OC(=O)[C@H](O)[C@@H](NC(=O)OC(C)(C)C)c3ccccc3)C(C)=C1C2(C)C
Key: 4.53
